- System: HepG2
- assayExplanation: Cytotoxicity against human HepG2-A16-CD81EGFP cells assessed as inhibition of cell growth incubated for 24 hrs followed by medium transfer and incubation in multimode plate for 48 hrs by CellTiterGlo reagent based luminescence assay
Provide the reported IC50 of each item.
One number for each entry, in µM.

givensmiles=Cc1ccc(C(=O)N(CC(=O)NC2CCCCC2)Cc2ccc(C(=O)NO)cc2)c(C)c1 measuredon=HepG2 readoutname=IC50 val=8.33

Would you mind telling me what IC50 value was observed for `CC(C)c1ccc(CC(=O)N(CC(=O)NC2CCCCC2)Cc2ccc(C(=O)NO)cc2)cc1` ?
25.1

* * *

- System: HepG2
- assayExplanation: Cytotoxicity against human HepG2-A16-CD81EGFP cells assessed as inhibition of cell growth incubated for 24 hrs followed by medium transfer and incubation in multimode plate for 48 hrs by CellTiterGlo reagent based luminescence assay
readoutName: IC50

Here are 4 compounds together with their reported answers.
givensmiles=CC(C)c1ccc(C(=O)N(Cc2ccc(C(=O)NO)cc2)C(C)(C)C(=O)NCc2ccccc2)cc1 readoutname=IC50 val="> 50 µM"
givensmiles=O=C(CN(Cc1ccc(C(=O)NO)cc1)C(=O)Cc1ccccc1)NC1CCCCC1 readoutname=IC50 val="> 50 µM"
givensmiles=CC(C)c1ccc(C(=O)N(CC(=O)NC23CC4CC(CC(C4)C2)C3)Cc2ccc(C(=O)NO)cc2)cc1 readoutname=IC50 val="4.32 µM"
givensmiles=CC(C)c1ccc(CC(=O)N(CC(=O)NCc2ccccc2)Cc2ccc(C(=O)NO)cc2)cc1 readoutname=IC50 val="30 µM"

Let's switch to this compound now.
Would you mind telling me what IC50 value was observed for `Cc1ccc(C(=O)N(CC(=O)NCc2ccccc2)Cc2ccc(C(=O)NO)cc2)c(C)c1` ?
3.71 µM
